Answer each item with its documented MIC.

Query: Give recorded MIC with E. Coli for the following compound: COC(=O)CCC(C)[C@H]1CCC2C3C[C@@H](O)[C@H]4C[C@@H](NCCCNCCCCNCCCN)CC[C@]4(C)C3CC[C@@]21C (stereo partly drawn) [drawing 77]
Reply: 32 µg/mL

Query: Entry C=C(C)C(=O)CCC(C)[C@H]1CCC2C3C(CC[C@@]21C)[C@@]1(C)CC[C@H](NCCCNCCCCN)C[C@@H]1C[C@H]3O (stereo partly drawn) , system E. Coli: what MIC was measured?
Reply: 32 µg/mL

Query: Given the entry CC(CCC(=O)O)[C@H]1CCC2C3C(CC[C@@]21C)[C@@]1(C)CC[C@H](NCCN)C[C@H]1C[C@H]3O (stereo partly drawn) [drawing 64] , what MIC was observed with E. Coli?
Reply: 128 µg/mL

Query: Lab note: need MIC for CC(C)CCCC(C)[C@H]1CCC2C3C(CC[C@@]21C)[C@@]1(C)CC[C@@H](N)C[C@@H]1C[C@H]3O (stereo partly drawn) on E. Coli, anyone have it?
Reply: > 256 µg/mL

Query: Hi! What's the reported MIC for COC(=O)CCC(C)[C@H]1CCC2C3C(CC[C@@]21C)[C@@]1(C)CC[C@H](NCCN)C[C@H]1C[C@H]3O (stereo partly drawn) [drawing 58] on E. Coli?
Reply: 64 µg/mL

Query: Find the measured MIC: item CC(C)CCCC(C)[C@H]1CCC2C3C(CC[C@@]21C)[C@@]1(C)CC[C@@H](NCCCNCCCCN)C[C@@H]1C[C@H]3O (stereo partly drawn) [drawing 56] , target or system E. Coli.
Reply: 32 µg/mL

Query: Value wanted: MIC (E. Coli) of entry COC(=O)CCC(C)[C@H]1CCC2C3CC[C@H]4C[C@@H](NCCCNCCCCNCCCN)CC[C@]4(C)C3CC[C@@]21C (stereo partly drawn) [drawing 75]
Reply: 32 µg/mL

Query: Enter reported MIC observed with E. Coli for CC(CCC(=O)O)[C@H]1CCC2C3C[C@@H](O)[C@H]4C[C@@H](NCCCNCCCCNCCCN)CC[C@]4(C)C3CC[C@@]21C (stereo partly drawn)
Reply: 16 µg/mL

Query: Provide the documented MIC with E. Coli as the system for CC(CCC(=O)O)[C@H]1CCC2C3C[C@@H](O)[C@H]4C[C@@H](NCCN)CC[C@]4(C)C3CC[C@@]21C (stereo partly drawn) [drawing 69]
Reply: > 256 µg/mL

Query: Query MIC on E. Coli for CC(CCC(=O)O)[C@H]1CCC2C3CC[C@@H]4C[C@H](NCCN)CC[C@]4(C)C3C[C@H](O)[C@@]21C (stereo partly drawn) [drawing 66]
Reply: 64 µg/mL

Query: What value of MIC on E. Coli does CC(CCC(=O)O)[C@H]1CCC2C3C(CC[C@@]21C)[C@@]1(C)CC[C@@H](NCCCNCCCCNCCCN)C[C@H]1C[C@H]3O (stereo partly drawn) [drawing 61] have?
Reply: 64 µg/mL

Query: Requested read-out MIC, target or system E. Coli, entry CC(C)CCC[C@@H](C)[C@H]1CC[C@H]2[C@@H]3CC[C@H]4C[C@H](NCCCCN)CC[C@]4(C)[C@H]3CC[C@]12C
Reply: > 256 µg/mL

* * *

# Test system: chick embryo
# ASSAY SUMMARY: Chick embryo diss. assay (Table II)
# Format: in vivo
So I've got a bunch of compounds here, and I need their Minimum Effective Concentration, chick embryo diss. assay values.
A number alone suffices; assume µg.

Query: Reported Minimum Effective Concentration, chick embryo diss. assay, compound COC(=O)CCC(C)[C@H]1CCC2C3CC[C@@H]4C[C@H](NCCCNCCCCNCCCN)CC[C@]4(C)C3C[C@H](O)[C@@]21C (stereo partly drawn) [drawing 106] : ____
Reply: 1

Query: Reported Minimum Effective Concentration, chick embryo diss. assay, compound CC(C)CCCC(C)[C@H]1CCC2C3C(CC[C@@]21C)[C@@]1(C)CC[C@H](N)C[C@@H]1C[C@H]3O (stereo partly drawn) [drawing 88] : ____
Reply: 1

Query: Could you share which Minimum Effective Concentration, chick embryo diss. assay value was measured for CC(CCC(=O)O)[C@H]1CCC2C3C(CC[C@@]21C)[C@@]1(C)CC[C@@H](NCCCNCCCCN)CC1C[C@H]3O (single isomer, unassigned) ?
Reply: 0.01

Query: Need Minimum Effective Concentration, chick embryo diss. assay, item COC(=O)CCC(C)[C@H]1CCC2C3C[C@@H](O)[C@H]4C[C@@H](NCCCNCCCCNCCCN)CC[C@]4(C)C3CC[C@@]21C (stereo partly drawn) [drawing 101]
Reply: 1

Query: Param item = COC(=O)CCC(C)[C@H]1CCC2C3C(CC[C@@]21C)[C@@]1(C)CC[C@@H](NCCN)C[C@H]1C[C@H]3O (stereo partly drawn) [drawing 93] ; retrieve measured Minimum Effective Concentration, chick embryo diss. assay.
Reply: 0.01

Query: I have this compound here, CC(C)CCCC(C)[C@H]1CCC2C3C(CC[C@@]21C)[C@@]1(C)CC[C@H](NCCCNCCCCN)C[C@@H]1C[C@H]3O (stereo partly drawn) [drawing 87] , and I need its recorded Minimum Effective Concentration, chick embryo diss. assay.
Reply: 1.10

Query: # input compound: CC(CCC(=O)O)[C@H]1CCC2C3C[C@@H](O)[C@H]4C[C@@H](NCCN)CC[C@]4(C)C3CC[C@@]21C (stereo partly drawn) [drawing 105] ; wanted: its Minimum Effective Concentration, chick embryo diss. assay
Reply: 1

* * *

Exercise: for every item that follows, state its recorded MIC.

Query: Lookup: MIC / E. Coli / CC(C)CCC[C@@H](C)[C@H]1CC[C@H]2[C@@H]3CC[C@H]4C[C@@H](NCCCCN)CC[C@]4(C)[C@H]3CC[C@]12C
Reply: > 256 µg/mL

Query: Entry COC(=O)CCC(C)[C@H]1CCC2C3C[C@@H](O)[C@H]4C[C@@H](NCCN)CC[C@]4(C)C3CC[C@@]21C (stereo partly drawn) , system E. Coli: what MIC was measured?
Reply: 8 to 16 µg/mL

Query: Field: MIC (E. Coli). Entry: CC(CCC(=O)O)[C@H]1CCC2C3CC[C@@H]4C[C@H](NCCCNCCCCNCCCN)CC[C@]4(C)C3C[C@H](O)[C@@]21C (stereo partly drawn) [drawing 73]
Reply: 8 to 16 µg/mL

* * *

# Test system: chick embryo
# ASSAY SUMMARY: Chick embryo diss. assay (Table II)
# Assay type: in vivo
TEST READOUT: Minimum Effective Concentration, chick embryo diss. assay

Query: Please give the measured Minimum Effective Concentration, chick embryo diss. assay for this compound: CC(C)CCC[C@@H](C)[C@H]1CC[C@H]2[C@@H]3CC[C@H]4C[C@H](NCCCNCCCCNCCCN)CC[C@]4(C)[C@H]3CC[C@]12C
Reply: > 10 µg

Query: Please report the recorded Minimum Effective Concentration, chick embryo diss. assay for CC(CCC(=O)O)[C@H]1CCC2C3C(CC[C@@]21C)[C@@]1(C)CC[C@H](NCCCNCCCCN)C[C@@H]1C[C@H]3O (some centres unmarked) .
Reply: > 10 µg

Query: Any idea what Minimum Effective Concentration, chick embryo diss. assay was measured for COC(=O)CCC(C)[C@H]1CCC2C3CC[C@H]4C[C@H](NCCCNCCCCNCCCN)CC[C@]4(C)C3CC[C@@]21C (some centres unmarked) [drawing 108] ?
Reply: > 1 µg

Query: # input compound: CC(C)CCCC(C)[C@H]1CCC2C3C(CC[C@@]21C)[C@@]1(C)CC[C@@H](NCCCNCCCCN)C[C@@H]1C[C@H]3O (some centres unmarked) [drawing 86] ; wanted: its Minimum Effective Concentration, chick embryo diss. assay
Reply: > 10 µg

Query: Given the entry COC(=O)CCC(C)[C@H]1CCC2C3C[C@@H](O)[C@H]4C[C@H](NCCN)CC[C@]4(C)C3CC[C@@]21C (some centres unmarked) [drawing 103] , report its measured Minimum Effective Concentration, chick embryo diss. assay.
Reply: > 1 µg

Query: // returns reported Minimum Effective Concentration, chick embryo diss. assay for input CC(CCC(=O)O)[C@H]1CCC2C3CC[C@@H]4C[C@H](NCCN)CC[C@]4(C)C3C[C@H](O)[C@@]21C (some centres unmarked) [drawing 115]
Reply: > 1 µg

Query: Give the measured Minimum Effective Concentration, chick embryo diss. assay of CC(C)CCCC(C)[C@H]1CCC2C3CC[C@H]4C[C@H](NCCCN5CCCCN=C5N)CC[C@]4(C)C3CC[C@@]21C (some centres unmarked) .
Reply: > 10 µg

Query: Recorded Minimum Effective Concentration, chick embryo diss. assay for CC(CCC(=O)O)[C@H]1CCC2C3CC[C@@H]4C[C@H](NCCCNCCCCNCCCN)CC[C@]4(C)C3C[C@H](O)[C@@]21C (some centres unmarked) [drawing 107] , please?
Reply: > 1 µg
